% Inhibition values by entry
# System: Plasmodium falciparum
# EXPERIMENT DESCRIPTION: Confirmatory screen in NF54 pLDH assay, in single point, at 2uM, 72h
# Type: functional, Erythrocyte
# EXPERIMENTAL PARAMETERS: timepoint 72 hour
Among all 4,800 compounds or so, about 410 (8.5%) showed an effect of 50% or more. This excerpt belongs to a sample that is enriched for strong results.
Numeric answer only, unit % assumed.

COMPOUND STRUCTURE | ENDPOINT | REPORTED MEASUREMENT
CCCN1CCC(Nc2cc(C)nc3ccccc23)CC1 | % Inhibition | 89
COC(=O)c1cn(CCNc2ccnc3cc(Cl)ccc23)cc2c(O)nnc1-2 | % Inhibition | 103

Moving on to another molecule below.
Bench note: what % Inhibition did COc1cc2nc(-c3ccc(F)c4cccnc34)nc(N)c2cc1OC show?
102
